- Test system: 958767-090-R-J1-PDC spheroid growth
- Protocol: Anticancer human tumor 958767-090-R-J1-PDC patient-derived head and neck squamous carcinoma cell line growth inhibition [IpAb]
- Measurement setup: second compound 10 µM; first compound 1 µM; active compounds read low; spheroids with HUVEC and MSC

Compound	Unit of measure	viability, T/C
COc1c(OCCCN2CCOCC2)ccc2c3n(c(=NC(=O)c4cnc(N)nc4)nc12)CCN3 + CC(C)NCC(C(=O)N1CCN(c2ncnc3c2C(C)CC3O)CC1)c1ccc(Cl)cc1	%	3.22
C=CC(=O)N1CCN(c2nc(=O)n(-c3c(C)ccnc3C(C)C)c3nc(-c4c(O)cccc4F)c(F)cc23)C(C)C1 (stereo not given) + CC(C)NCC(C(=O)N1CCN(c2ncnc3c2C(C)CC3O)CC1)c1ccc(Cl)cc1	%	48.1
CC1(C)CCC(CN2CCN(c3ccc(C(=O)NS(=O)(=O)c4ccc(NCC5CCOCC5)c([N+](=O)[O-])c4)c(Oc4cnc5[nH]ccc5c4)c3)CC2)=C(c2ccc(Cl)cc2)C1 + CC(C)NCC(C(=O)N1CCN(c2ncnc3c2C(C)CC3O)CC1)c1ccc(Cl)cc1	%	28.8
CCCS(=O)(=O)Nc1ccc(F)c(C(=O)c2c[nH]c3ncc(-c4ccc(Cl)cc4)cc23)c1F + CC(C)NCC(C(=O)N1CCN(c2ncnc3c2C(C)CC3O)CC1)c1ccc(Cl)cc1	%	42.3
Cn1ncc(Cl)c1-c1cc(C(=O)NC(CN)Cc2cccc(F)c2)sc1Cl (stereo not given) + CC(C)NCC(C(=O)N1CCN(c2ncnc3c2C(C)CC3O)CC1)c1ccc(Cl)cc1	%	42.5

----------
Entries annotated with measured viability, T/C
- System: 958767-090-R-J1-PDC spheroid growth
- Protocol: Anticancer human tumor 958767-090-R-J1-PDC cell line growth inhibition [IpAb];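 also: spheroids exposed to agents for 7 days; 100% = DMSO vehicle control wells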
- Measurement setup: second compound 0.316 µM; first compound 0.1 µM; active compounds read low; spheroids with HUVEC and MSC

Molecule	viability, T/C [%]
C=CC(=O)N1CCN(c2nc(=O)n(-c3c(C)ccnc3C(C)C)c3nc(-c4c(O)cccc4F)c(F)cc23)C(C)C1 (stereo unspecified) + CC(C)NCC(C(=O)N1CCN(c2ncnc3c2C(C)CC3O)CC1)c1ccc(Cl)cc1	71.1
Cn1ncnc1[C@H]1c2n[nH]c(=O)c3cc(F)cc(c23)N[C@@H]1c1ccc(F)cc1 + CCN1CCN(Cc2ccc(Nc3ncc(F)c(-c4cc(F)c5nc(C)n(C(C)C)c5c4)n3)nc2)CC1	43.4
CC(C)n1nc(-c2ccc3oc(N)nc3c2)c2c(N)ncnc21 + CC(C)NCC(C(=O)N1CCN(c2ncnc3c2C(C)CC3O)CC1)c1ccc(Cl)cc1	33.4
CC1(C)CCC(CN2CCN(c3ccc(C(=O)NS(=O)(=O)c4ccc(NCC5CCOCC5)c([N+](=O)[O-])c4)c(Oc4cnc5[nH]ccc5c4)c3)CC2)=C(c2ccc(Cl)cc2)C1 + CC(C)NCC(C(=O)N1CCN(c2ncnc3c2C(C)CC3O)CC1)c1ccc(Cl)cc1	54.9
Cn1nccc1Nc1nccc(-c2ccn(C(CO)c3ccc(Cl)c(F)c3)c(=O)c2)n1 (stereo unspecified) + CC(C)NCC(C(=O)N1CCN(c2ncnc3c2C(C)CC3O)CC1)c1ccc(Cl)cc1	46.4
CCCS(=O)(=O)Nc1ccc(F)c(C(=O)c2c[nH]c3ncc(-c4ccc(Cl)cc4)cc23)c1F + CCN1CCN(Cc2ccc(Nc3ncc(F)c(-c4cc(F)c5nc(C)n(C(C)C)c5c4)n3)nc2)CC1	54.8

----------
- Test system: 958767-090-R-J1-PDC spheroid growth
- Protocol: Anticancer human tumor 958767-090-R-J1-PDC cell line growth inhibition [IpAb];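 also: spheroids exposed to agents for 7 days; 100% = DMSO vehicle control wells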
- Measurement setup: second compound 10 µM; first compound 0.0316 µM; active compounds read low; spheroids with HUVEC and MSC
# label = Criterion met if viability, T/C < 40% else Criterion not met

Molecule	Group
CC(C)n1nc(-c2ccc3oc(N)nc3c2)c2c(N)ncnc21 + CC(C)NCC(C(=O)N1CCN(c2ncnc3c2C(C)CC3O)CC1)c1ccc(Cl)cc1	Criterion met
CC1(C)CCC(CN2CCN(c3ccc(C(=O)NS(=O)(=O)c4ccc(NCC5CCOCC5)c([N+](=O)[O-])c4)c(Oc4cnc5[nH]ccc5c4)c3)CC2)=C(c2ccc(Cl)cc2)C1 + CC(C)NCC(C(=O)N1CCN(c2ncnc3c2C(C)CC3O)CC1)c1ccc(Cl)cc1	Criterion met
Cn1ncnc1[C@H]1c2n[nH]c(=O)c3cc(F)cc(c23)N[C@@H]1c1ccc(F)cc1 + CC(C)NCC(C(=O)N1CCN(c2ncnc3c2C(C)CC3O)CC1)c1ccc(Cl)cc1	Criterion not met
C=CC(=O)N1CCN(c2nc(=O)n(-c3c(C)ccnc3C(C)C)c3nc(-c4c(O)cccc4F)c(F)cc23)C(C)C1 (configuration not stated) + CC(C)NCC(C(=O)N1CCN(c2ncnc3c2C(C)CC3O)CC1)c1ccc(Cl)cc1	Criterion not met
Cn1ncc(Cl)c1-c1cc(C(=O)NC(CN)Cc2cccc(F)c2)sc1Cl (configuration not stated) + CC(C)NCC(C(=O)N1CCN(c2ncnc3c2C(C)CC3O)CC1)c1ccc(Cl)cc1	Criterion not met
CCCS(=O)(=O)Nc1ccc(F)c(C(=O)c2c[nH]c3ncc(-c4ccc(Cl)cc4)cc23)c1F + CC(C)NCC(C(=O)N1CCN(c2ncnc3c2C(C)CC3O)CC1)c1ccc(Cl)cc1	Criterion not met

----------
Entries annotated with measured viability, T/C
- System: 958767-090-R-J1-PDC spheroid growth
- Protocol: Anticancer human tumor 958767-090-R-J1-PDC cell line growth inhibition [IpAb];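 also: spheroids exposed to agents for 7 days; 100% = DMSO vehicle control wells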
- Measurement setup: second compound 0.1 µM; first compound 0.316 µM; active compounds read low; spheroids with HUVEC and MSC
Observable: viability, T/C

Compound	Result
COc1c(OCCCN2CCOCC2)ccc2c3n(c(=NC(=O)c4cnc(N)nc4)nc12)CCN3 + CC(C)NCC(C(=O)N1CCN(c2ncnc3c2C(C)CC3O)CC1)c1ccc(Cl)cc1	9.18%
Cn1nccc1Nc1nccc(-c2ccn(C(CO)c3ccc(Cl)c(F)c3)c(=O)c2)n1 (stereo not given) + CCN1CCN(Cc2ccc(Nc3ncc(F)c(-c4cc(F)c5nc(C)n(C(C)C)c5c4)n3)nc2)CC1	51.5%
Cn1nccc1Nc1nccc(-c2ccn(C(CO)c3ccc(Cl)c(F)c3)c(=O)c2)n1 (stereo not given) + CC(C)NCC(C(=O)N1CCN(c2ncnc3c2C(C)CC3O)CC1)c1ccc(Cl)cc1	56.1%
CCCS(=O)(=O)Nc1ccc(F)c(C(=O)c2c[nH]c3ncc(-c4ccc(Cl)cc4)cc23)c1F + CCN1CCN(Cc2ccc(Nc3ncc(F)c(-c4cc(F)c5nc(C)n(C(C)C)c5c4)n3)nc2)CC1	82.9%
Cn1ncc(Cl)c1-c1cc(C(=O)NC(CN)Cc2cccc(F)c2)sc1Cl (stereo not given) + CCN1CCN(Cc2ccc(Nc3ncc(F)c(-c4cc(F)c5nc(C)n(C(C)C)c5c4)n3)nc2)CC1	51.5%

----------
- System: 958767-090-R-J1-PDC spheroid growth
- Protocol: Anticancer human tumor 958767-090-R-J1-PDC cell line growth inhibition [IpAb];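 also: spheroids exposed to agents for 7 days; 100% = DMSO vehicle control wells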
- Measurement setup: second compound 0.316 µM; first compound 0.0316 µM; active compounds read low; spheroids with HUVEC and MSC
# label = MET if viability, T/C < 60% else NOT MET

Compound	Group
Cn1ncnc1[C@H]1c2n[nH]c(=O)c3cc(F)cc(c23)N[C@@H]1c1ccc(F)cc1 + CC(C)NCC(C(=O)N1CCN(c2ncnc3c2C(C)CC3O)CC1)c1ccc(Cl)cc1	NOT MET
Cn1nccc1Nc1nccc(-c2ccn(C(CO)c3ccc(Cl)c(F)c3)c(=O)c2)n1 (stereo not given) + CC(C)NCC(C(=O)N1CCN(c2ncnc3c2C(C)CC3O)CC1)c1ccc(Cl)cc1	NOT MET
Cn1ncc(Cl)c1-c1cc(C(=O)NC(CN)Cc2cccc(F)c2)sc1Cl (stereo not given) + CC(C)NCC(C(=O)N1CCN(c2ncnc3c2C(C)CC3O)CC1)c1ccc(Cl)cc1	MET
C=CCn1c(=O)c2cnc(Nc3ccc(N4CCN(C)CC4)cc3)nc2n1-c1cccc(C(C)(C)O)n1 + CCN1CCN(Cc2ccc(Nc3ncc(F)c(-c4cc(F)c5nc(C)n(C(C)C)c5c4)n3)nc2)CC1	NOT MET
Cn1ncnc1[C@H]1c2n[nH]c(=O)c3cc(F)cc(c23)N[C@@H]1c1ccc(F)cc1 + CCN1CCN(Cc2ccc(Nc3ncc(F)c(-c4cc(F)c5nc(C)n(C(C)C)c5c4)n3)nc2)CC1	MET
Cc1nc(NC(=O)N2CCCC2C(N)=O)sc1-c1ccnc(C(C)(C)C(F)(F)F)c1 (stereo not given) + CCN1CCN(Cc2ccc(Nc3ncc(F)c(-c4cc(F)c5nc(C)n(C(C)C)c5c4)n3)nc2)CC1	MET
C=CCn1c(=O)c2cnc(Nc3ccc(N4CCN(C)CC4)cc3)nc2n1-c1cccc(C(C)(C)O)n1 + CC(C)NCC(C(=O)N1CCN(c2ncnc3c2C(C)CC3O)CC1)c1ccc(Cl)cc1	NOT MET
COc1c(OCCCN2CCOCC2)ccc2c3n(c(=NC(=O)c4cnc(N)nc4)nc12)CCN3 + CCN1CCN(Cc2ccc(Nc3ncc(F)c(-c4cc(F)c5nc(C)n(C(C)C)c5c4)n3)nc2)CC1	MET
C=CC(=O)N1CCN(c2nc(=O)n(-c3c(C)ccnc3C(C)C)c3nc(-c4c(O)cccc4F)c(F)cc23)C(C)C1 (stereo not given) + CC(C)NCC(C(=O)N1CCN(c2ncnc3c2C(C)CC3O)CC1)c1ccc(Cl)cc1	NOT MET
CC(C)n1nc(-c2ccc3oc(N)nc3c2)c2c(N)ncnc21 + CC(C)NCC(C(=O)N1CCN(c2ncnc3c2C(C)CC3O)CC1)c1ccc(Cl)cc1	MET
Cn1ncc(Cl)c1-c1cc(C(=O)NC(CN)Cc2cccc(F)c2)sc1Cl (stereo not given) + CCN1CCN(Cc2ccc(Nc3ncc(F)c(-c4cc(F)c5nc(C)n(C(C)C)c5c4)n3)nc2)CC1	NOT MET
C=CC(=O)N1CCN(c2nc(=O)n(-c3c(C)ccnc3C(C)C)c3nc(-c4c(O)cccc4F)c(F)cc23)C(C)C1 (stereo not given) + CCN1CCN(Cc2ccc(Nc3ncc(F)c(-c4cc(F)c5nc(C)n(C(C)C)c5c4)n3)nc2)CC1	NOT MET
CC(C)n1nc(-c2ccc3oc(N)nc3c2)c2c(N)ncnc21 + CCN1CCN(Cc2ccc(Nc3ncc(F)c(-c4cc(F)c5nc(C)n(C(C)C)c5c4)n3)nc2)CC1	MET
CCCS(=O)(=O)Nc1ccc(F)c(C(=O)c2c[nH]c3ncc(-c4ccc(Cl)cc4)cc23)c1F + CCN1CCN(Cc2ccc(Nc3ncc(F)c(-c4cc(F)c5nc(C)n(C(C)C)c5c4)n3)nc2)CC1	NOT MET
CC1(C)CCC(CN2CCN(c3ccc(C(=O)NS(=O)(=O)c4ccc(NCC5CCOCC5)c([N+](=O)[O-])c4)c(Oc4cnc5[nH]ccc5c4)c3)CC2)=C(c2ccc(Cl)cc2)C1 + CCN1CCN(Cc2ccc(Nc3ncc(F)c(-c4cc(F)c5nc(C)n(C(C)C)c5c4)n3)nc2)CC1	MET
